target: RPA WT (RPA70-RPA32-RPA14) (human, UniProt P27694;P15927;P35244 1-616;1-270;1-121); experiment: fluorescence anisotropy; 200 mM NaCl; FA: 200 mM NaCl, KCl or LiCl, 20 mM HEPES pH 7.4, 1 mM DTT, 22-25 C, 375 or 750 pM oligo, Kd,app +/- SEM; EMSA: 20 mM HEPES pH 7.4, 200 mM KCl, 1 nM 32P oligo; conditions: protein: recombinant; tags: 6xHis N-term on RPA70 and RPA14; copies: 1;1;1; label: 5' fluorescein; intramolecular G4 at 5' end, 18 nt 3' tail; linear in LiCl
Sequence (P27694 whole entry, chain 1 of 3): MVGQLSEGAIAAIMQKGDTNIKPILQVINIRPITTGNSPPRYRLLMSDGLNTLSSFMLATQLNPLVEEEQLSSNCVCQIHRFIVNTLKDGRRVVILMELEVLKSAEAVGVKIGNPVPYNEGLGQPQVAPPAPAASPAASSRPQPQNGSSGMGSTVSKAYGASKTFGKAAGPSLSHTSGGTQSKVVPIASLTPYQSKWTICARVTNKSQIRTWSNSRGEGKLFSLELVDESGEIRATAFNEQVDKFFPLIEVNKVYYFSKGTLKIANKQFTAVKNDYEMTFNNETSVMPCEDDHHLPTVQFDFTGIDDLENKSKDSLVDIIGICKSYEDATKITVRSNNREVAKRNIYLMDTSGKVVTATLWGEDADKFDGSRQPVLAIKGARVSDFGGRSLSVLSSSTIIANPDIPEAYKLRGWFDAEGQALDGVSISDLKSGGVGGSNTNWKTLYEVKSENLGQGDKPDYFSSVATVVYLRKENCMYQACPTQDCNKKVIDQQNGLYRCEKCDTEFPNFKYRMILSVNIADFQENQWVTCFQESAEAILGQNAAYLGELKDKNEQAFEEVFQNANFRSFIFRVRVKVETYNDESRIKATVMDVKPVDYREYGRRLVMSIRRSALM
Sequence (P15927 whole entry, chain 2 of 3): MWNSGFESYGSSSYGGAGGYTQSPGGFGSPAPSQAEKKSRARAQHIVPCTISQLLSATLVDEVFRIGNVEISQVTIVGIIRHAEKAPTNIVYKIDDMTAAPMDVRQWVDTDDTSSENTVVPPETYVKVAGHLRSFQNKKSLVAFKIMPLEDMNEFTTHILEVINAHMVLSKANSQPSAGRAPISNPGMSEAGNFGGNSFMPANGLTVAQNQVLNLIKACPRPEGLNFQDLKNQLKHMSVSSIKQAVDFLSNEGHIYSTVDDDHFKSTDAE
Sequence (P35244 whole entry, chain 3 of 3): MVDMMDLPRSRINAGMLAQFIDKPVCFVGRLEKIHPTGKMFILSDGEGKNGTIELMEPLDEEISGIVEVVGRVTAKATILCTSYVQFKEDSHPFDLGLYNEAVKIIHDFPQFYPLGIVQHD
Endpoint: pKd
Scale note: pKd = -log10(concentration in M).

What value of pKd has been recorded for this entry: AGGGTTAGGGTTAGGGTTAGGGTGAGTGTGAGTGTGAGTG (structured_DNA) [Tel40 5' G4]
9.11
